Every entry's value here was drawn from patent US8946215B2.

- PROTOCOL_NOTES: Determination of pharmacokinetic parameters following intravenous and oral administration (rats)
- Type: in vivo, male Wistar rats
- EXPERIMENTAL_PARAMETERS: following intravenous and peroral administration
- Procedure: B-6. Determination of Pharmacokinetic Parameters Following Intravenous and Oral Administration The pharmacokinetic parameters of the compounds according to the invention are determined in male CD-1 mice, male Wistar rats and female beagles. […] The substances are quantified via the peak heights or areas from extracted ion chromatograms of specific selected ion monitoring experiments. […]
MEASURED_ENDPOINT: CLblood (mL/min/kg)

>>> print(df.to_string())
                                   compound  measured_endpoint  number
0  Cc1nc2c(OCc3ncccc3F)cc(Cl)cn2c1C(=O)NC(CCCC(F)(F)F)C(C)(C)O (single isomer, unassigned; ent-6) [Example 188]            CLblood    8.83
1  Cc1cc(OCc2ncccc2F)c2nc(C)c(C(=O)NC(CCC(F)(F)C(F)(F)F)C(C)(C)O)n2c1 (single isomer, unassigned; ent-8) [Example 187]            CLblood    11.8
2  Cc1nc2c(OCc3ncccc3F)cc(Cl)cn2c1C(=O)NC(CCC(F)(F)C(F)(F)F)C(C)(C)O (single isomer, unassigned; ent-6) [Example 194]            CLblood    7.33
3  Cc1cc(OCc2ncccc2F)c2nc(C)c(C(=O)NC(CCCC(F)(F)F)C(C)(C)O)n2c1 (single isomer, unassigned; ent-8) [Example 181]            CLblood    9.33

----------
// values below are reported half-life
- PROTOCOL_NOTES: Determination of pharmacokinetic parameters following intravenous and oral administration (rats)
- Assay type: in vivo, male Wistar rats
- EXPERIMENTAL_PARAMETERS: male, Wistar, rat, plasma, following intravenous and peroral administration, read-out: t½ (terminal half life) (converted)
MEASURED_ENDPOINT: half-life (h)

                                   compound  number
0  Cc1cc(OCc2ncccc2F)c2nc(C)c(C(=O)NC(CCC(F)(F)C(F)(F)F)C(C)(C)O)n2c1 (single isomer, unassigned; ent-8)     4.6
1  Cc1cc(OCc2ncccc2F)c2nc(C)c(C(=O)NC(CCCC(F)(F)F)C(C)(C)O)n2c1 (single isomer, unassigned; ent-8)     3.4
2  Cc1nc2c(OCc3ncccc3F)cc(Cl)cn2c1C(=O)NC(CCCC(F)(F)F)C(C)(C)O (single isomer, unassigned; ent-6)     1.7
3  Cc1nc2c(OCc3ncccc3F)cc(Cl)cn2c1C(=O)NC(CCC(F)(F)C(F)(F)F)C(C)(C)O (single isomer, unassigned; ent-6)     6.2

----------
- TARGET_SYSTEM: recombinant guanylate cyclase reporter cell line (Rattus norvegicus, UniProt P19686+P20595)
- Construct: expressed in transfected cells
- Sequence (P20595 1-619): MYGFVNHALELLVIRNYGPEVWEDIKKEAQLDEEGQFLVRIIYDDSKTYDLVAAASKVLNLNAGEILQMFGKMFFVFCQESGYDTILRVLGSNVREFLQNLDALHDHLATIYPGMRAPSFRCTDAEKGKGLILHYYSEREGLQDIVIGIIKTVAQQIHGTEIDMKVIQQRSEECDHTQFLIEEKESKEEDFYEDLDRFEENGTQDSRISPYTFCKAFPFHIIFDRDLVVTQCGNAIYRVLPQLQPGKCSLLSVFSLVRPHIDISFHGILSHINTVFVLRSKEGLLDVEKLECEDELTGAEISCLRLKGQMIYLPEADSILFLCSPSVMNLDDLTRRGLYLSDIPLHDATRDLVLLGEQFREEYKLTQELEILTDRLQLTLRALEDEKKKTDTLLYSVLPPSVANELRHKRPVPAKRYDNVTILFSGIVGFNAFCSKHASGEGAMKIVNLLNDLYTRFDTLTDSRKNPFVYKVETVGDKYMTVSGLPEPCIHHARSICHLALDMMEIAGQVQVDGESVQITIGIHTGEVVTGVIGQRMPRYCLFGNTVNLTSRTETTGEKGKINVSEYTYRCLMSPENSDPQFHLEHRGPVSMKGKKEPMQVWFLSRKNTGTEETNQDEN
- Sequence (P19686 1-690): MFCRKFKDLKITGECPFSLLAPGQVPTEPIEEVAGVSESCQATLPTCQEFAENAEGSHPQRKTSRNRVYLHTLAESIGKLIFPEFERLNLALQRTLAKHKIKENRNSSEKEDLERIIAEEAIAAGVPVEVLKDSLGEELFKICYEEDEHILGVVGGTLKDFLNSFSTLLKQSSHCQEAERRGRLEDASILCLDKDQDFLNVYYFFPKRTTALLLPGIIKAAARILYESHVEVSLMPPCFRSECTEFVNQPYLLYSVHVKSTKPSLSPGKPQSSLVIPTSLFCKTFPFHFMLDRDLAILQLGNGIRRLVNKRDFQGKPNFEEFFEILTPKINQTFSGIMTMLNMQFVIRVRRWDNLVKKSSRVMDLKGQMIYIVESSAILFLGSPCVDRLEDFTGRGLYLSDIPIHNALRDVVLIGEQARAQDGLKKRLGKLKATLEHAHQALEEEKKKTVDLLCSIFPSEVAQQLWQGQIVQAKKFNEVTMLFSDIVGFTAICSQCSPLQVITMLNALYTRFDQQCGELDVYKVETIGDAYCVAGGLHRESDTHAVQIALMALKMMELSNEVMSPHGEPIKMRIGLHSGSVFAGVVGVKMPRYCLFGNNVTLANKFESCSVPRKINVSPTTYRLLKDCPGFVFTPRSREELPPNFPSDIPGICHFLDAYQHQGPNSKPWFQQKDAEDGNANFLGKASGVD
- PROTOCOL_NOTES: Action on recombinant guanylate cyclase reporter cell line
- Type: cell-based
- EXPERIMENTAL_PARAMETERS: in some cases mean values obtained from individual determinations
Listed next: entries and their corresponding MEC (minimal effective concentration).
MEASURED_ENDPOINT: MEC (minimal effective concentration) (µM)

In [3]: df
Out[3]:
                                   molecule                      measured_endpoint  number
0  Cc1nc2c(OCc3c(F)cccc3F)cccn2c1C(=O)NC(CO)CCC(F)(F)F (single isomer, unassigned; ent-8) [Example 122]  MEC (minimal effective concentration)    0.03
1  Cc1nc2c(OCc3c(F)cccc3F)cccn2c1C(=O)NCCC(C)O (stereo not shown)  MEC (minimal effective concentration)    0.65
2  Cc1nc2c(OCc3c(F)cccc3F)cccn2c1C(=O)NCC(C)(C)CO  MEC (minimal effective concentration)     3.0
3  CCCC[C@H](CO)NC(=O)c1c(C)nc2c(OCc3c(F)cccc3F)cc(F)cn12  MEC (minimal effective concentration)    0.03
